# ASSAYED_SYSTEM: ABL T315I BAF3 cells (Homo sapiens, UniProt P00519, T315I, cells depend on it)
# Construct: ABL T315I BAF3; fused on or other part: P11274 (Breakpoint cluster region protein)
# METHOD_NOTES: 96-well XTT cell survival assay, BaF3 ABL T315I
# Format: cell-based
# CONDITION_NOTES: 72 hours, read-out: CELL BIO ABL T315I BAF3 XTT (IC50)
# Procedure: MV4-11 and THP cells were maintained in Iscove's Modified Dulbecco's Medium supplemented with 10% fetal bovine serum (FBS) and penicillin/streptomycin, Ba/F3 cells were maintained in RPMI 1640 supplemented with 10% FBS, penicillin/streptomycin and 5 ng/ml recombinant mouse IL-3. Compounds were tested in the following assays in duplicate. […]
Recorded GI50 for the following compounds

COMPOUND | GI50
OC(c1cncc(-c2cnc3[nH]cc(-c4ccccc4F)c3c2Cl)c1)c1ncccc1F (stereo not shown) | 0.1 to 1 µM
COc1ccccc1-c1c[nH]c2ncc(-c3cncc(C(O)C(=O)N(C)C)c3)c(C#N)c12 (stereo not shown) | > 1 µM
CN(C)C(=O)c1cncc(-c2cnc3[nH]cc(-c4ccc(F)cc4)c3c2Cl)n1 | > 1 µM
CN(C)C(=O)c1cncc(-c2cnc3[nH]cc(-c4cccc(F)c4F)c3c2Cl)c1 | 0.1 to 1 µM
COc1ccc(C(F)(F)F)cc1-c1c[nH]c2ncc(-c3cnc(N)c(C(=O)N(C)C)c3)c(Cl)c12 | 0.1 to 1 µM

Returns the measured GI50 for the input compound. Input: COc1ncccc1-c1c[nH]c2ncc(-c3cncc(C(O)C(=O)N(C)C)c3)c(Cl)c12 (stereo not shown)
0.1 to 1 µM

Any idea what its GI50 is? The compound is `CN(C)C(=O)c1cncc(-c2cnc3[nH]cc(-c4ccc(F)cc4F)c3c2Cl)c1`
> 1 µM

Data request, read-out GI50, for OC(c1cncc(-c2cnc3[nH]cc(-c4ccc(F)cc4)c3c2Cl)c1)c1ncccc1F (stereo not shown)
> 1 µM

Which GI50 value belongs to OC(c1cncc(-c2cnc3[nH]cc(-c4cccc(F)c4F)c3c2Cl)c1)c1ncccc1F (stereo not shown) ?
0.1 to 1 µM

Form field: reported GI50 of OC(c1cncc(-c2cnc3[nH]cc(-c4cccc(F)c4F)c3c2Cl)c1)C1CC1 (stereo not shown)
0.1 to 1 µM

Consider the compound shown here: `CN(C)C(=O)c1cncc(-c2cnc3[nH]cc(-c4ccc(F)cc4)c3c2Cl)c1` What is its recorded GI50?
> 1 µM

Fill in the blank: the reported GI50 of `CNc1c(Br)cnc2[nH]cc(-c3ccccc3OC)c12` is ____.
> 1 µM

Data request, read-out GI50, for `COc1ccccc1-c1c[nH]c2ncc(Br)c(N)c12`
> 1 µM

GI50 lookup needed for COc1ccccc1-c1c[nH]c2ncc(-c3cncc(C(O)C(=O)N(C)C)c3)c(O)c12 (stereo not shown) , thanks.
> 1 µM

Requested field: GI50. Item: `CNC(=O)c1cncc(-c2cnc3[nH]cc(-c4ccccc4F)c3c2Cl)n1`
> 1 µM

Which GI50 is reported for this compound? `COc1ccccc1-c1c[nH]c2ncc(-c3cncc(CC(=O)N(C)C)c3)c(Cl)c12`
0.01 to 0.1 µM

Item under review: Nc1ncc(-c2cnc3[nH]cc(-c4cccc(F)c4)c3c2Cl)cc1C(=O)N1CCCC1CO (stereo not shown) . Reported GI50?
0.1 to 1 µM

Value lookup for GI50; key = `CN(C)C(=O)c1cc(-c2cnc3[nH]cc(-c4cccc(F)c4)c3c2Cl)cnc1N`
0.1 to 1 µM

# input compound: OC(c1cccc(-c2cnc3[nH]cc(-c4ccc(F)cc4)c3c2Cl)c1)c1ncco1 (stereo not shown) ; wanted: its GI50
> 1 µM

Name the reported GI50 value associated with the compound COc1ccncc1-c1c[nH]c2ncc(-c3cncc(C(O)C(=O)N(C)C)c3)c(Cl)c12 (stereo not shown)
0.1 to 1 µM

What value of measured GI50 is listed for CN(C)C(=O)c1cncc(-c2cnc3[nH]cc(-c4ccccc4F)c3c2Cl)n1 [6-[4-chloro-3-(2-fluoro-phenyl)-1H-pyrrolo[2,3,b]pyridine-5-] ?
0.1 to 1 µM

Look at this compound and give its reported GI50. `COc1ccccc1-c1c[nH]c2ncc(-c3cnc(N)c(C(=O)N4CCOCC4)c3)c(Cl)c12`
0.1 to 1 µM

# input compound: `Cc1noc(C)c1-c1c[nH]c2ncc(-c3cncc(C(=O)N(C)C)c3)c(Cl)c12` ; wanted: its GI50
> 1 µM

So what does the record say about GI50 for CNc1c(-c2cncc(C(O)C(=O)N(C)C)c2)cnc2[nH]cc(-c3ccccc3OC)c12 (stereo not shown) ?
0.1 to 1 µM

Give its GI50 value. Item: `Nc1ncc(-c2cnc3[nH]cc(-c4cc(F)ccc4F)c3c2Cl)cc1C(=O)N1CCOCC1`
0.1 to 1 µM

// lookup GI50 for `COc1ccccc1-c1c[nH]c2ncc(Br)c(SC)c12`
> 1 µM

Would you mind telling me what GI50 value was observed for NC(=O)C(O)c1cncc(-c2cnc3[nH]cc(-c4ccccc4F)c3c2Cl)c1 (stereo not shown) ?
> 1 µM

Looking for the measured GI50 of CCc1c(-c2cncc(C(O)C(=O)N(C)C)c2)cnc2[nH]cc(-c3ccccc3OC)c12 (stereo not shown) , can you help?
0.1 to 1 µM

###

# ASSAYED_SYSTEM: purified and unphosphorylated T315I Abl kinase domain (ABL_T315I_0P) (Mus musculus, UniProt P00520, T315I)
# Construct: The c-Abl T3151 KD (kinase domain) was purified as follows; Met-Ser-Leu (vector-derived residues) (N); made in house; host or cells: E. coli BL21(DE3) strains (Codon+RIL, or pSA0145 for the lambda phosphatase co-expression plasmid)
# METHOD_NOTES: c-Abl T315I (unphosphorylated kinase domain) pyruvate kinase/lactate dehydrogenase coupled enzyme assay
# Type: biochemical
# CONDITION_NOTES: 10 μM ATP
REPORTED_ENDPOINT: ABL_T315I_0P (IC50)

COMPOUND | ABL_T315I_0P (IC50)
COc1cc(F)c(F)cc1-c1c[nH]c2ncc(-c3cnc(N)c(C(=O)N(C)C)c3)c(Cl)c12 | D (<0.01 μM)
COc1ccccc1-c1c[nH]c2ncc(Br)c(N(C)CCO)c12 | C (0.1-0.01 μM)
COc1ccccc1-c1c[nH]c2ncc(-c3cncc(C(O)C(=O)N(C)C)c3)c(N(C)C)c12 (stereo not drawn) | B (1.0-0.1 μM)
COc1ccccc1-c1c[nH]c2ncc(-c3cncc(C(O)C(=O)N(C)C)c3)c(OC)c12 (stereo not drawn) | D (<0.01 μM)
Cn1nccc1C(O)c1cncc(-c2cnc3[nH]cc(-c4ccccc4F)c3c2Cl)c1 (stereo not drawn) | D (<0.01 μM)

Lab note: next compound to report on.
For CN(C)C(=O)C(O)c1cncc(-c2cnc3[nH]nc(-c4ccccc4)c3c2Cl)c1 (stereo not drawn) , what is its reported ABL_T315I_0P (IC50)?
B (1.0-0.1 μM)

###

# ASSAYED_SYSTEM: purified and unphosphorylated T315I Abl kinase domain (ABL_T315I_0P) (Mus musculus, UniProt P00520, T315I)
# Construct: The c-Abl T3151 KD (kinase domain) was purified as follows; Met-Ser-Leu (vector-derived residues) (N); made in house; host or cells: E. coli BL21(DE3) strains (Codon+RIL, or pSA0145 for the lambda phosphatase co-expression plasmid)
# Sequence (P00520 242-493 T315I limits assumed): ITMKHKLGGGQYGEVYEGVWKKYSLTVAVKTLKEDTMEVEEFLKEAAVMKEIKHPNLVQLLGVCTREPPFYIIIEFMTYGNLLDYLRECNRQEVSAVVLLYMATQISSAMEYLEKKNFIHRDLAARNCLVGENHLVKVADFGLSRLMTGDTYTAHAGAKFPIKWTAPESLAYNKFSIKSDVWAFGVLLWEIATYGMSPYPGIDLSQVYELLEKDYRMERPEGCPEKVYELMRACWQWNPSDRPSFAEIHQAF
# METHOD_NOTES: c-Abl T315I (unphosphorylated kinase domain) pyruvate kinase/lactate dehydrogenase coupled enzyme assay
# Type: biochemical
# CONDITION_NOTES: 10 μM ATP
REPORTED_ENDPOINT: ABL_T315I_0P (IC50)

COMPOUND | ABL_T315I_0P (IC50)
CN(C)C(=O)C(O)c1cncc(-c2cnc3[nH]cc(-c4ccc(F)cc4)c3c2Cl)c1 (stereo not drawn) | C (0.1-0.01 μM)
Nc1ncc(-c2cnc3[nH]cc(-c4cc(F)ccc4F)c3c2Cl)cc1C(=O)N1CCCC1CO (stereo not drawn) | D (<0.01 μM)
COc1ncccc1-c1c[nH]c2ncc(-c3cncc(C(O)C(=O)N(C)C)c3)c(Cl)c12 (stereo not drawn) | D (<0.01 μM)
COc1ccccc1-c1c[nH]c2ncc(-c3cnc(N)c(C(=O)N4CCOCC4)c3)c(Cl)c12 | D (<0.01 μM)
CN(C)C(=O)C(O)c1cncc(-c2cnc3[nH]cc(-c4ccccc4F)c3c2Cl)c1 (stereo not drawn) | D (<0.01 μM)

Fill blank: measured ABL_T315I_0P (IC50) of the compound CCc1c(-c2cncc(C(O)C(=O)N(C)C)c2)cnc2[nH]cc(-c3ccccc3OC)c12 (stereo not drawn) is ____.
D (<0.01 μM)

Requested field: ABL_T315I_0P (IC50). Item: CN(C)C1CCN(C(=O)c2cc(-c3cnc4[nH]cc(-c5cc(F)ccc5F)c4c3Cl)cnc2N)C1 (stereo not drawn)
D (<0.01 μM)

Consider the compound shown here: `CN(C)C(=O)c1cc(-c2cnc3[nH]cc(-c4cccc(F)c4F)c3c2Cl)cnc1N` What is its recorded ABL_T315I_0P (IC50)?
D (<0.01 μM)

Reported ABL_T315I_0P (IC50), compound `COc1cc(C#N)ccc1-c1c[nH]c2ncc(-c3cnc(N)c(C(=O)N(C)C)c3)c(Cl)c12` : ____
C (0.1-0.01 μM)
